Test system: 997726-040-R-J2-PDC tumor spheroids, viability;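 note: spheroids exposed to compounds for seven days before readout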
Assay: Anticancer human tumor 997726-040-R-J2-PDC patient-derived squamous cell lung carcinoma cell line growth inhibition [PI3K]
Conditions: second compound 0.0316 µM; first compound 0.0316 µM; stronger effect = lower value; spheroids with HUVEC and MSC
The label Condition met is reserved for viability, T/C strictly under 40%; Condition not met covers values equal to or above it.

[[record]]
molecule = "CNC(=O)c1ccc(N2C(=S)N(c3ccc(C#N)c(C(F)(F)F)c3)C(=O)C2(C)C)cc1F + CC(Nc1ncnc2nc[nH]c12)c1cc2cccc(Cl)c2c(=O)n1-c1ccccc1"
subject_of_test = "997726-040-R-J2-PDC tumor spheroids, viability"
category_label = "Condition not met"

[[record]]
molecule = "CC(C)NCC(C(=O)N1CCN(c2ncnc3c2C(C)CC3O)CC1)c1ccc(Cl)cc1 (stereo unspecified) + Cc1nc(NC(=O)N2CCCC2C(N)=O)sc1-c1ccnc(C(C)(C)C(F)(F)F)c1"
subject_of_test = "997726-040-R-J2-PDC tumor spheroids, viability"
category_label = "Condition not met"

[[record]]
molecule = "CCN1CCN(Cc2ccc(Nc3ncc(F)c(-c4cc(F)c5nc(C)n(C(C)C)c5c4)n3)nc2)CC1 + CC(Nc1ncnc2nc[nH]c12)c1cc2cccc(Cl)c2c(=O)n1-c1ccccc1"
subject_of_test = "997726-040-R-J2-PDC tumor spheroids, viability"
category_label = "Condition not met"


Please indicate whether the reported viability, T/C of CC(C)NCC(C(=O)N1CCN(c2ncnc3c2C(C)CC3O)CC1)c1ccc(Cl)cc1 (stereo unspecified) + COc1c(OCCCN2CCOCC2)ccc2c3n(c(=NC(=O)c4cnc(N)nc4)nc12)CCN3 is strictly below 40%. Condition met

Cool, now CC1(C)CCC(Nc2ncc(C(F)(F)F)c(-c3c[nH]c4c(P(C)(C)=O)c(C#N)ccc34)n2)CN1 (stereo unspecified) + COc1c(OCCCN2CCOCC2)ccc2c3n(c(=NC(=O)c4cnc(N)nc4)nc12)CCN3 Condition met

Cool, now Cn1nccc1Nc1nccc(-c2ccn(C(CO)c3ccc(Cl)c(F)c3)c(=O)c2)n1 (stereo unspecified) + CC(Nc1ccc2c(c1)OCCn1cc(N3C(=O)OCC3C(F)F)nc1-2)C(N)=O Condition not met

Cool, now CC1(C)CCC(CN2CCN(c3ccc(C(=O)NS(=O)(=O)c4ccc(NCC5CCOCC5)c([N+](=O)[O-])c4)c(Oc4cnc5[nH]ccc5c4)c3)CC2)=C(c2ccc(Cl)cc2)C1 + CC(Nc1ncnc2nc[nH]c12)c1cc2cccc(Cl)c2c(=O)n1-c1ccccc1 Condition not met

Cool, now CC1(C)CCC(CN2CCN(c3ccc(C(=O)NS(=O)(=O)c4ccc(NCC5CCOCC5)c([N+](=O)[O-])c4)c(Oc4cnc5[nH]ccc5c4)c3)CC2)=C(c2ccc(Cl)cc2)C1 + COc1c(OCCCN2CCOCC2)ccc2c3n(c(=NC(=O)c4cnc(N)nc4)nc12)CCN3 Condition met

Cool, now Cn1ncnc1[C@H]1c2n[nH]c(=O)c3cc(F)cc(c23)N[C@@H]1c1ccc(F)cc1 + Cc1nc(NC(=O)N2CCCC2C(N)=O)sc1-c1ccnc(C(C)(C)C(F)(F)F)c1 Condition not met

Cool, now C[C@@H](NC(=O)c1ncnc(N)c1Cl)c1ncc(C(=O)Nc2cc(C(F)(F)F)c(Cl)cn2)s1 + COc1c(OCCCN2CCOCC2)ccc2c3n(c(=NC(=O)c4cnc(N)nc4)nc12)CCN3 Condition not met

Cool, now C[C@@H](NC(=O)c1ncnc(N)c1Cl)c1ncc(C(=O)Nc2cc(C(F)(F)F)c(Cl)cn2)s1 + Cc1nc(NC(=O)N2CCCC2C(N)=O)sc1-c1ccnc(C(C)(C)C(F)(F)F)c1 Condition not met

Cool, now CC(C)n1nc(-c2ccc3oc(N)nc3c2)c2c(N)ncnc21 + COc1c(OCCCN2CCOCC2)ccc2c3n(c(=NC(=O)c4cnc(N)nc4)nc12)CCN3 Condition met

Cool, now C#Cc1c(F)ccc2cc(O)cc(-c3ncc4c(N5CC6CCC(C5)N6)nc(OCC56CCCN5CC(F)C6)nc4c3F)c12 (stereo unspecified) + COc1c(OCCCN2CCOCC2)ccc2c3n(c(=NC(=O)c4cnc(N)nc4)nc12)CCN3 Condition met

Cool, now C=CC(=O)N1CCN(c2nc(=O)n(-c3c(C)ccnc3C(C)C)c3nc(-c4c(O)cccc4F)c(F)cc23)C(C)C1 (stereo unspecified) + COc1c(OCCCN2CCOCC2)ccc2c3n(c(=NC(=O)c4cnc(N)nc4)nc12)CCN3 Condition met

Cool, now CC(C)NCC(C(=O)N1CCN(c2ncnc3c2C(C)CC3O)CC1)c1ccc(Cl)cc1 (stereo unspecified) + CC(Nc1ccc2c(c1)OCCn1cc(N3C(=O)OCC3C(F)F)nc1-2)C(N)=O Condition not met

Cool, now CC(=O)c1c(C)c2cnc(Nc3ccc(N4CCNCC4)cn3)nc2n(C2CCCC2)c1=O + CC(Nc1ncnc2nc[nH]c12)c1cc2cccc(Cl)c2c(=O)n1-c1ccccc1 Condition not met

Cool, now C#Cc1c(F)ccc2cc(O)cc(-c3ncc4c(N5CC6CCC(C5)N6)nc(OCC56CCCN5CC(F)C6)nc4c3F)c12 (stereo unspecified) + Cc1nc(NC(=O)N2CCCC2C(N)=O)sc1-c1ccnc(C(C)(C)C(F)(F)F)c1 Condition not met

Cool, now CC(Cn1ccc(-c2ccc(C#N)c(Cl)c2)n1)NC(=O)c1cc(C(C)O)[nH]n1 (stereo unspecified) + CC(Nc1ncnc2nc[nH]c12)c1cc2cccc(Cl)c2c(=O)n1-c1ccccc1 Condition not met

Cool, now Cn1nccc1Nc1nccc(-c2ccn(C(CO)c3ccc(Cl)c(F)c3)c(=O)c2)n1 (stereo unspecified) + Cc1nc(NC(=O)N2CCCC2C(N)=O)sc1-c1ccnc(C(C)(C)C(F)(F)F)c1 Condition not met

Cool, now CC(=O)c1c(C)c2cnc(Nc3ccc(N4CCNCC4)cn3)nc2n(C2CCCC2)c1=O + COc1c(OCCCN2CCOCC2)ccc2c3n(c(=NC(=O)c4cnc(N)nc4)nc12)CCN3 Condition met
